# Tested on: ACHN renal
# METHOD_NOTES: NCI-60 one-dose screen, 48 h
# CONDITION_PARAMETERS: 10 µM unless noted
This is part of a sample that, as a whole, favours compounds with a hit. Of some 83,000 tested, about 20% had one in any assay. Calls of active or inactive are those of the source. The calls were made as follows: active = growth percent below 10; inactive = the rest.
Thanks in advance; please answer with one of these: active, inactive

Give the logged outcome of this assay for the following compound: CC(C)Cc1cc(CNC(=O)C2[C@H]3CN(C(=O)c4ccccc4)C[C@@H]23)nn1-c1ccccc1 (some centres undefined)
inactive

Give the logged outcome of this assay for the following compound: `COc1ccc2nc(-c3ccc(Cl)cc3)cc(-c3nnc(SCC(=O)Nc4ccc(/C(C)=N\O)cc4)o3)c2c1`
inactive

Give the logged outcome of this assay for the following compound: `COc1ccc(-c2[nH]c3ccccc3c2C=C(C#N)C#N)cc1`
inactive

Next:
Give the logged outcome of this assay for the following compound: `C=C1C(=O)O[C@H]2[C@H]1CC/C(COC(=O)c1cccnc1N)=C\CC[C@@]1(C)O[C@@H]21`
active

Give the logged outcome of this assay for the following compound: `C=C1C(=O)O[C@H]2[C@H]1CC/C(COC(=O)N1CCC[C@H]1C(=O)Nc1ccc(OC)c(C(N)=O)c1O)=C\CC[C@@]1(C)O[C@@H]21`
inactive

Give the logged outcome of this assay for the following compound: `COc1cc(-c2nn(-c3ccc(Br)cc3)cc2CO)ccc1O`
inactive

Give the logged outcome of this assay for the following compound: `C#Cc1ccccc1NC(=O)c1sc2nc3c(cc2c1N)CCCCCC3`
inactive

Give the logged outcome of this assay for the following compound: `Cc1ccc(-c2nc(C#N)c(S(=O)(=O)N(C)CCO)o2)cc1`
inactive

Give the logged outcome of this assay for the following compound: `COc1cc(C(=O)N2CCN(c3ccccc3OC)CC2)c(NC(=O)c2cnccn2)cc1OCc1ccccc1`
inactive
